Entry source: patent US8846704B2

// values below are reported pIC50
Target: human JAK3 (Homo sapiens)
Sequence (P52333 822-1111 limits assumed): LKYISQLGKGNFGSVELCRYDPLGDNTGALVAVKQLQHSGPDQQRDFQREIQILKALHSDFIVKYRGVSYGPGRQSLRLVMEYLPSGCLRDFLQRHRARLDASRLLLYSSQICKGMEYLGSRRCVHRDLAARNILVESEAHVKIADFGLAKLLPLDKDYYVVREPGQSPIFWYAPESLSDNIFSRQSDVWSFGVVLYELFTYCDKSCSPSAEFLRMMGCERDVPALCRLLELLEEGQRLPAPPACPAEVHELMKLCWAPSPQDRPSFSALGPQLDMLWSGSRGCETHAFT
pIC50: −log10 of the molar value.

Worked examples follow.
> print(dat)
                               query.smiles  reported.measurement
1  OCc1cccc(Sc2ccnc(Nc3ccc(N4CCOCC4)cc3)n2)c1                > 6.30
2  C=CC(=O)Nc1ccc(Sc2ccnc(Nc3ccc(N4CCOCC4)cc3)n2)cc1                > 7.00
3  Cc1cnc(Nc2ccc(N3CCOCC3)cc2)nc1Sc1ccc(NC(=O)/C=C/Cl)cc1                > 7.00
4  C=CC(=O)Nc1ccc(Sc2ccnc(Nc3ccc(N4CCOCC4)cc3)n2)cc1OC                > 7.00
5  C=CC(=O)Nc1cccc(Sc2ccnc(Nc3cccc(N4CCOCC4)c3)n2)c1                > 7.00

Given the entry Cc1cnc(Nc2ccc(N3CCOCC3)cc2)nc1Sc1c(C)cc(N)cc1C , what pIC50 was observed with human JAK3 (Homo sapiens)?
> 6.30

Notebook: pull reported pIC50 for human JAK3 (Homo sapiens), entry C=CC(=O)Nc1ccc(Sc2ccnc(Nc3ccc(O)cc3)n2)cc1
> 7.00

Provide value of pIC50 for this record tested with human JAK3 (Homo sapiens): O=C(/C=C/Cl)Nc1ccc(Sc2ccnc(Nc3ccc(N4CCOCC4)cc3)n2)cc1
> 7.00

Test system human JAK3 (Homo sapiens); read-out pIC50; what value for C=CC(=O)Nc1ccc(Sc2nc(Nc3cccc(OCCCO)c3)ncc2C)cc1 ?
> 7.00

Find the measured pIC50: item O=C(CCl)Nc1cccc(Sc2ccnc(Nc3ccc(N4CCOCC4)cc3)n2)c1 , target or system human JAK3 (Homo sapiens).
> 7.00

Kindly state the measured pIC50 obtained for C=CC(=O)Nc1ccc(Sc2nc(Nc3ccc(N4CCOCC4)cc3)ncc2Cl)cc1 with human JAK3 (Homo sapiens).
> 7.00

Request body: readout pIC50, system human JAK3 (Homo sapiens), query C=CC(=O)Nc1ccc(Sc2nc(Nc3ccc(N4CCOCC4)cc3)ncc2C)cc1C . Return the value.
> 7.00

----------
Test system: BaF3 wild-type cells
Experiment: Cellular screening, BaF3 wild-type cells, Alamar Blue
Type: cell-based
Details: Mus musculus, 40 hr, read-out: BAF3wt IC50_nM
Description: For screening purposes, compounds were diluted in 96 well plates at a concentration of 20 μM. Plates were warmed at 37° C. for 30 minutes before the assay was performed. […] Compounds to be tested were added (10 μL, 10× final concentration) to a flat bottomed 96-well plate. […] The plates were then read at 544 nm.
IC50 reference

# annotated cases, reported IC50 shown
> print(dat)
                                   compound  reported.measurement
1  C=CC(=O)Nc1ccc(Sc2nc(Nc3ccc(NS(C)(=O)=O)c(OC)c3)ncc2C)cc1                < 5 µM
2  C=CC(=O)Nc1ccc(Sc2nc(Nc3ccc(OC)c(NS(C)(=O)=O)c3)ncc2C)cc1                < 5 µM
3  C=CC(=O)Nc1ccc(Sc2nc(Nc3ccc(N4CCOCC4)cc3)ncc2C)c(Cl)c1C               > 20 µM
4  C=CC(=O)Nc1ccc(Sc2nc(Nc3ccc(N4CCOCC4)cc3)ncc2F)cc1               > 20 µM
5  Cc1cnc(Nc2ccc(N3CCOCC3)cc2)nc1Sc1ccc(N2C(=O)CSCC2=O)cc1               > 20 µM
6  C=CC(=O)Nc1ccc(Sc2ccnc(Nc3cccc(S(=O)(=O)N4CCOCC4)c3)n2)cc1                < 5 µM

Need IC50, item Cc1cnc(Nc2ccc(N3CCOCC3)cc2)nc1Sc1ccc(N2C(=O)CCC2=O)cc1
> 20 µM

Which value of IC50 has been reported for C=CC(=O)Nc1ccc(Sc2nc(Nc3ccc(N4CCCC(O)C4)cc3)ncc2C)cc1 (centres unmarked) in the records?
< 20 µM

----------
# pIC50 values compiled below
Target: human JAK2 (Homo sapiens, UniProt O60674)
Sequence (O60674 849-1124 limits assumed): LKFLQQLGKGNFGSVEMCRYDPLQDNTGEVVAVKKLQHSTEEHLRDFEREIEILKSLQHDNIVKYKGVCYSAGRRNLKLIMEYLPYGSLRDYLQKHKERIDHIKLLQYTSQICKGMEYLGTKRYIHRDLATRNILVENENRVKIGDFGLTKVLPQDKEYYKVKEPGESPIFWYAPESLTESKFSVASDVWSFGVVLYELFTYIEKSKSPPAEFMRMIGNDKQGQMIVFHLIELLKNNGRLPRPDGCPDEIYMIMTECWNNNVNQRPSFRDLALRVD
pIC50: −log10 of the molar value.

# annotated cases, reported pIC50 shown
> print(dat)
                                   compound  measured.endpoint  reported.measurement
1  C=CC(=O)Nc1ccc(Sc2ccnc(Nc3cccc(OC)c3)n2)cc1              pIC50                < 6.00
2  O=C(Nc1ccc(Sc2ccnc(Nc3ccc(N4CCOCC4)cc3)n2)cc1)C1CC1(F)Cl (stereo not shown)              pIC50                < 6.00
3  C=CC(=O)Nc1cccc(Sc2ccnc(Nc3cccc(N4CCOCC4)c3)n2)c1              pIC50                < 6.00

Give human JAK2 (Homo sapiens, UniProt O60674) pIC50 for Cc1cnc(Nc2ccc(N3CCN(C)CC3)cc2)nc1Sc1ccc(N)cc1
> 6.30

----------
Overview of reported GI50 across a group of molecules:
Molecular target: BaF3 TELJAK3 cells (Homo sapiens)
Construct: fused on or other part: TEL (ETV6) N-terminal part, coding nucleotides 1-487, serves as the oligomerising partner; It is fused through a Sal I site to the JAK3 kinase domain and expressed from pTRE2 in BaF3 cells bearing pTET-off; P41212 (Transcription factor ETV6)
Sequence (P52333 whole entry, change not shown, the tested form may be a part): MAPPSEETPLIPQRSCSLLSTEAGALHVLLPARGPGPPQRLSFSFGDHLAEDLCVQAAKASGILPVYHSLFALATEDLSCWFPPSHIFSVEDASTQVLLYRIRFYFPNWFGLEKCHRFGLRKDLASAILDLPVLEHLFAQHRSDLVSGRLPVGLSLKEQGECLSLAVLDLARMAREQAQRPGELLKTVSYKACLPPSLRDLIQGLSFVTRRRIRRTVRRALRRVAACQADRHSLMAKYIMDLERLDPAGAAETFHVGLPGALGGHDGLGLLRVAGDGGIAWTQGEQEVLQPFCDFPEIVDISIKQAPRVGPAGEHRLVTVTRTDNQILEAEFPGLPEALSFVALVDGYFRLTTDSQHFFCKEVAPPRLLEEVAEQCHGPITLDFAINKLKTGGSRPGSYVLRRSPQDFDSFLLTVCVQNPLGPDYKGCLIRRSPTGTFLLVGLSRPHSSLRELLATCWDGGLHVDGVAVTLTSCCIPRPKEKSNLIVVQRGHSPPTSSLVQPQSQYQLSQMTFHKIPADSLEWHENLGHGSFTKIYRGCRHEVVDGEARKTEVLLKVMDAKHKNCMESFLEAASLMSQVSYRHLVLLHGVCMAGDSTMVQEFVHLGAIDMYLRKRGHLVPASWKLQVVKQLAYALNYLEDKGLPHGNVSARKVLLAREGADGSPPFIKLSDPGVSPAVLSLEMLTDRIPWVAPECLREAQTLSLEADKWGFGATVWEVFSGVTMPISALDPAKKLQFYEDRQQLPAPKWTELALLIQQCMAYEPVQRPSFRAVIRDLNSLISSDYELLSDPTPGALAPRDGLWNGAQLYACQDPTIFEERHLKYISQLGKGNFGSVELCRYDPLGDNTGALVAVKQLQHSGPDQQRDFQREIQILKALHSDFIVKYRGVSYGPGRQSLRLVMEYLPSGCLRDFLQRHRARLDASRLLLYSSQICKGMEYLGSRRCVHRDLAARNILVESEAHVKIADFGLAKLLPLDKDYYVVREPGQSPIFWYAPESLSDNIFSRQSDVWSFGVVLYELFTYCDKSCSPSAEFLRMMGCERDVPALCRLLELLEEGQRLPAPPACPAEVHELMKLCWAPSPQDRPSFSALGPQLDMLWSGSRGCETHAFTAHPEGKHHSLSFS
Test: Cellular screening, BaF3 TEL:JAK3 cells, Alamar Blue
Format: cell-based
Details: 40 hr, read-out: BafT_J3 IC50_nM
Method: For screening purposes, compounds were diluted in 96 well plates at a concentration of 20 μM. Plates were warmed at 37° C. for 30 minutes before the assay was performed. […] Compounds to be tested were added (10 μL, 10× final concentration) to a flat bottomed 96-well plate. […] The plates were then read at 544 nm.

> print(dat)
                                   molecule  reported.measurement
1  C=CC(=O)Nc1ccc(Sc2nc(Nc3cccc(N4CCN(C)CC4)c3)ncc2C)cc1 [Compound 243]                < 1 µM
2  Cc1cnc(Nc2ccc(O)cc2)nc1Sc1ccc(N)cc1 [Compound 191]                < 5 µM
3  C=CC(=O)Nc1ccc(Sc2nc(Nc3ccc(OCCCN(CC)CC)cc3)ncc2C)cc1 [Compound 291]                < 1 µM
4  C=CC(=O)Nc1ccc(Nc2nccc(SC)n2)cc1 [Compound 13]               > 20 µM
5  C=CC(=O)Nc1ccc(Sc2ccnc(Nc3cccc(C(=O)OC)c3)n2)cc1 [Compound 356]                < 5 µM
6  C=CC(=O)Nc1cccc(Nc2nccc(Sc3ccccc3)n2)c1 [Compound 16]                < 1 µM

Request - read-out GI50 | tested on BaF3 TELJAK3 cells (Homo sapiens) | molecule C=CC(=O)Nc1ccc(Sc2nc(Nc3ccc(N4CCOCC4)cc3)ncc2C)cc1C [Compound 259]
< 1 µM

Query GI50 on BaF3 TELJAK3 cells (Homo sapiens) for Cc1cnc(Nc2ccc(N3CCOCC3)cc2)nc1Sc1ccc(NC(=O)/C=C/C(=O)O)cc1 [Compound 387]
> 20 µM

Lab note: need GI50 with BaF3 TELJAK3 cells (Homo sapiens) for entry Cc1cnc(Nc2cccc(S)c2)nc1Sc1ccc(NC(=O)CCl)cc1 [Compound 195] , please look it up.
< 20 µM

----------
Quick record: IC50, UniProt P52333.

These recorded examples may help you get a feel for the data.
> print(dat)
                                   molecule  reported.measurement
1         CC#CC(=O)Nc1cccc(Nc2nccc(SC)n2)c1              < 100 nM
2  C=CC(=O)Nc1ccc(Sc2ccnc(Nc3cccc(S(=O)(=O)NCCC(C)C)c3)n2)cc1              < 100 nM
3  Cc1cnc(Nc2ccc(N3CCOCC3)cc2)nc1Sc1ccc(N2C(=O)CCC2=O)cc1              < 100 nM

Look up IC50: CNC(=O)/C=C\C(=O)Nc1ccc(Sc2nc(Nc3ccc(N4CCOCC4)cc3)ncc2C)cc1
< 100 nM

So what does the record say about IC50 for N#Cc1c(N)ncn1Cc1ccc(Sc2ccnc(Nc3ccc(N4CCOCC4)cc3)n2)cc1 ?
< 500 nM

# lookup: IC50 of C=CC(=O)Nc1ccc(Sc2nc(Nc3ccc(N4CCOCC4)cc3)ncc2C)cc1
< 100 nM

Name the reported IC50 value associated with the molecule COc1ccc(Nc2nccc(Sc3ccc(NC(=O)CC#N)cc3)n2)cc1OC
> 1000 nM

So what's the measured IC50 for this one? C=CC(=O)Nc1ccc(Sc2ccnc(Nc3ccc(OC)c(O)c3)n2)cc1
< 100 nM

GET /values?readout=IC50&item= N#CCc1cn(Cc2ccc(Sc3ccnc(Nc4ccc(N5CCOCC5)cc4)n3)cc2)cn1
< 500 nM

Form field: reported IC50 of N#CCC(=O)Nc1ccc(Sc2ccnc(Nc3ccc(N4CCC(N5CCCC5)CC4)cc3)n2)cc1
< 500 nM

Query (molecule): C=CC(=O)Nc1ccc(Sc2nc(Nc3ccc(N4CCOCC4)cc3)ncc2C)c(C)c1 ; field requested: IC50
< 100 nM

IC50 for C=CC(=O)Nc1ccc(Sc2ccnc(Nc3ccc(N4CCOCC4)cc3)n2)c(Cl)c1C ?
< 100 nM
